For each record, write down the corresponding OD450 nm.
# SUBJECT_OF_TEST: HRgpA-6H (Porphyromonas gingivalis) (UniProt P28784)
# EXPERIMENTAL_DETAILS: ELISA, coated HRgpA-6H
Please give the numeric answer without any surrounding text.

Supply OD450 nm value. Item: KB001 mouse Fab VL S57P (Fab, V domains shown) VH: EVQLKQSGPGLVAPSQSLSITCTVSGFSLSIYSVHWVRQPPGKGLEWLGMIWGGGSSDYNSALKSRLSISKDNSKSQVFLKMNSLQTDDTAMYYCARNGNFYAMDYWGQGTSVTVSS VL: QIVLTQSPAIMSASLGERVTMTCTASSSVSSSFLHWYQQKPGSSPQLWIYSTSNLAPGVPARFSGSGSGTSYSLTISSMEAEDAATYYCHQYHHSPYIYTFGGGTKLEIK 0.858

Output OD450 nm of KB001 mouse Fab VL T24N/G67D (Fab, V domains shown) VH: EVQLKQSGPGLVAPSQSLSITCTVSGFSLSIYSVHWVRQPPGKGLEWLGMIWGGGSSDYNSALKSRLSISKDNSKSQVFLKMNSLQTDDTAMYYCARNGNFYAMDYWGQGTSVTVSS VL: QIVLTQSPAIMSASLGERVTMTCNASSSVSSSFLHWYQQKPGSSPQLWIYSTSNLASGVPARFSGSDSGTSYSLTISSMEAEDAATYYCHQYHHSPYIYTFGGGTKLEIK 0.755

Supply measured OD450 nm of KB001 mouse Fab VL S32Y (Fab, V domains shown) VH: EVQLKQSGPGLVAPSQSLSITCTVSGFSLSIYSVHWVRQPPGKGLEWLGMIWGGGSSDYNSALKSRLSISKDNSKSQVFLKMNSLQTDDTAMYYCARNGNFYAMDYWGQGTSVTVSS VL: QIVLTQSPAIMSASLGERVTMTCTASSSVSSYFLHWYQQKPGSSPQLWIYSTSNLASGVPARFSGSGSGTSYSLTISSMEAEDAATYYCHQYHHSPYIYTFGGGTKLEIK in your reply. 0.753

Return OD450 nm (reported value) for this binder: KB001 mouse Fab VH S61R (Fab, V domains shown) VH: EVQLKQSGPGLVAPSQSLSITCTVSGFSLSIYSVHWVRQPPGKGLEWLGMIWGGGSSDYNRALKSRLSISKDNSKSQVFLKMNSLQTDDTAMYYCARNGNFYAMDYWGQGTSVTVSS VL: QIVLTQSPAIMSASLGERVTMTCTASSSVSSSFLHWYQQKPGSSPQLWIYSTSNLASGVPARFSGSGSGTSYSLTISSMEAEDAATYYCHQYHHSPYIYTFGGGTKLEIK 0.438

Give a short answer stating reported OD450 nm for KB001 mouse Fab VL S30F (Fab, V domains shown) VH: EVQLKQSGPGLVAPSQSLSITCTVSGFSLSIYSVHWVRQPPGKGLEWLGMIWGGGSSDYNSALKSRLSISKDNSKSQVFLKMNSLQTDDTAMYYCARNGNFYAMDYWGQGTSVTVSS VL: QIVLTQSPAIMSASLGERVTMTCTASSSVFSSFLHWYQQKPGSSPQLWIYSTSNLASGVPARFSGSGSGTSYSLTISSMEAEDAATYYCHQYHHSPYIYTFGGGTKLEIK . 0.911
